Test system: HOS (Osteosarcoma)
Test: combination Emax (second highest fraction inhibited in the dose matrix, 72 h); higher = more inhibition; extreme values may be limits of the assay
Measured Attribute: combination Emax

INSERT INTO results (compound, system_under_test, measured_attribute, result) VALUES
  ('NC1(C(=O)N[C@@H](CCO)c2ccc(Cl)cc2)CCN(c2ncnc3[nH]ccc23)CC1 [Capivasertib] + CC(=O)c1c(C)c2cnc(Nc3ccc(N4CCNCC4)cn3)nc2n(C2CCCC2)c1=O [Palbociclib] (first compound max 10 µM, 7x7, partner max 10 µM)', 'HOS (Osteosarcoma)', 'combination Emax', 0.504),
  ('CC1(C)CCC(CN2CCN(c3ccc(C(=O)NS(=O)(=O)c4ccc(NCC5CCOCC5)c([N+](=O)[O-])c4)c(Oc4cnc5[nH]ccc5c4)c3)CC2)=C(c2ccc(Cl)cc2)C1 [Venetoclax] + C[C@@H](Nc1cc(F)cc(F)c1)c1cc(C(=O)N(C)C)cc2c(=O)cc(N3CCOCC3)oc12 [AZD8186] (first compound max 1 µM, 7x7, partner max 3 µM)', 'HOS (Osteosarcoma)', 'combination Emax', 0.0842),
  ('N#Cc1cnc(Nc2cc(NC[C@H]3CNCCO3)c(C(F)(F)F)cn2)cn1 [SRA737] + Nc1ccn([C@@H]2O[C@H](CO)[C@@H](O)C2(F)F)c(=O)n1 [Gemcitabine] (first compound max 10 µM, 7x7, partner max 0.3 µM)', 'HOS (Osteosarcoma)', 'combination Emax', 0.752),
  ('Cc1c2c(nn1C)CSCc1cc(n(C)n1)CSc1cc(c3ccccc3c1)OCCCc1c(C(=O)O)n(C)c3c-2c(Cl)ccc13 [AZD5991] + Cn1cnc2c(F)c(Nc3ccc(Br)cc3Cl)c(C(=O)NOCCO)cc21 [Selumetinib] (first compound max 1 µM, 7x7, partner max 3 µM)', 'HOS (Osteosarcoma)', 'combination Emax', 0.229),
  ('C[C@@H](c1ccc2nccn2c1)n1nnc2ncc(-c3cnn(C)c3)nc21 [Savolitinib] + CC1(C)CCC(CN2CCN(c3ccc(C(=O)NS(=O)(=O)c4ccc(NCC5CCOCC5)c([N+](=O)[O-])c4)c(Oc4cnc5[nH]ccc5c4)c3)CC2)=C(c2ccc(Cl)cc2)C1 [Venetoclax] (first compound max 1 µM, 7x7, partner max 1 µM)', 'HOS (Osteosarcoma)', 'combination Emax', 0.205),
  ('CN(C)CCCOc1ccc(-c2ccc3ncc4c(c3c2)n(C2CCOCC2)c(=O)n4C)cn1 [AZD0156] + CCN(CCO)CCCOc1ccc2c(Nc3cc(CC(=O)Nc4cccc(F)c4)[nH]n3)ncnc2c1 [AZD2811] (first compound max 1 µM, 7x7, partner max 1 µM)', 'HOS (Osteosarcoma)', 'combination Emax', 0.0916),
  ('CCc1c2c(nc3ccc(O)cc13)-c1cc3c(c(=O)n1C2)COC(=O)[C@]3(O)CC [SN-38] + CN(C)CCCOc1ccc(-c2ccc3ncc4c(c3c2)n(C2CCOCC2)c(=O)n4C)cn1 [AZD0156] (first compound max 0.3 µM, 7x7, partner max 1 µM)', 'HOS (Osteosarcoma)', 'combination Emax', 0.893);
